- experimental_target: JAK3 (Homo sapiens, UniProt P52333)
- Construct: purchased Carna Biosciences, Inc
- Sequence (P52333 whole entry): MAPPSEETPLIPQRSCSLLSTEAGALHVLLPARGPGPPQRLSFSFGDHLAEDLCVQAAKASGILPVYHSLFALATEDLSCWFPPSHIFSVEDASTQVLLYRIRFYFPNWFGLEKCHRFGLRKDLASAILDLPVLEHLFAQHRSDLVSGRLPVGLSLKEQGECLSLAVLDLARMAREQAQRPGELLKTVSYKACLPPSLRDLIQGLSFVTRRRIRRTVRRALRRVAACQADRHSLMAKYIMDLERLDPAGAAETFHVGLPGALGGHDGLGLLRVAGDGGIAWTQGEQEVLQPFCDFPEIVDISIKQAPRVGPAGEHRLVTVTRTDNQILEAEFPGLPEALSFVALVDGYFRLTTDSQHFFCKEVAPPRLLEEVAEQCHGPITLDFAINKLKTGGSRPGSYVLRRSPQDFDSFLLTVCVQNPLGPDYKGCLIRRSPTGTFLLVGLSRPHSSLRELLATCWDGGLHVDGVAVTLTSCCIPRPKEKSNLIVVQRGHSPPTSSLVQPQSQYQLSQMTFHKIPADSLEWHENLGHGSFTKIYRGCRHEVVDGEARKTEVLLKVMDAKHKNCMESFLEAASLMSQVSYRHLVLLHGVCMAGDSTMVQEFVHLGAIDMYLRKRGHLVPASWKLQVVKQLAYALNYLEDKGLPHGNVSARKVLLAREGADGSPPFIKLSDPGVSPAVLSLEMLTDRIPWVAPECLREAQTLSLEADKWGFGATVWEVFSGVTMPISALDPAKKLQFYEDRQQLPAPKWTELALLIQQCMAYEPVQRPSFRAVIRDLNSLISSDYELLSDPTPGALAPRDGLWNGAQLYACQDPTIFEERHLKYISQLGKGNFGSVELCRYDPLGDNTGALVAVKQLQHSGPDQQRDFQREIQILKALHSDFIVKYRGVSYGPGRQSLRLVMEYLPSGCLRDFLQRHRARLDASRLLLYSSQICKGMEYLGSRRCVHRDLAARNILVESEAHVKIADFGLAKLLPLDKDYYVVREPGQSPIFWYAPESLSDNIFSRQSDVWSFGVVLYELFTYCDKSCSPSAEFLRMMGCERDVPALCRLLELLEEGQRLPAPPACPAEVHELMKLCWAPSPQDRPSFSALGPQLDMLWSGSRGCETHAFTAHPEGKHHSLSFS
- method_summary: JAK tyrosine kinase inhibitory activity in the presence of 1 mM ATP (ELISA), JAK3
- Type: biochemical
measurement_label: IC50 (nM)

CC(C)(C)Nc1cc(C(=O)N2CCC(Nc3ccccn3)CC2)nc(-c2cnn3ccsc23)n1 ... 5900
COC(=O)NC1CCN(C(=O)c2nc(-c3cnn4ccsc34)nc(N[C@@H](C)C3CC3)c2OC)CC1 ... 1400
COC(=O)NC1CCN(C(=O)c2nc(-c3cnn4ccsc34)nc(N[C@H](C)C(C)(C)C)c2OC)CC1 ... 1400

(1) COC(=O)NC1CCN(C(=O)c2cc(NCC(C)(C)CC3CC3)nc(-c3cnn4ccsc34)n2)CC1
(2) COC(=O)NC1CCN(C(=O)c2cc(N[C@H](C)C(C)(C)C)nc(-c3cnn4ccsc34)n2)CC1
Of the two listed items, which has the higher IC50? First: 1 Second: 2 Return value: the label identifying the chosen record.
1
(1: 5600 nM, 2: 2900 nM)

(A) O=C(NC1CCN(C(=O)c2cc(NCC3(COC(F)F)CCOCC3)nc(-c3cnn4ccsc34)n2)CC1)C1CC1
(B) CCC(CC)Nc1cc(C(=O)N2CCC(NC(=O)OC)CC2)nc(-c2cnn3ccsc23)n1
Consider A and B . Which of these has its IC50 at a higher number? Returns: label corresponding to the selected item.
A
(A: 4800 nM, B: 2400 nM)
